test system: RXF 393 renal; test: NCI-60 one-dose screen, 48 h (100 = growth as untreated, 0 = no growth, -100 = all killed); conditions: 10 µM unless noted
This is part of a sample that, as a whole, favours compounds with a hit. Of some 83,000 tested, about 20% had one in any assay.
The threshold is inclusive: growth of exactly 80% counts as Yes; values below receive No.

compound	cat
CCCCC1CCCC12NC(=O)NC2=O (stereo not drawn)	Yes
Oc1c(I)cc(I)cc1CNCCCN(Cc1ccccn1)Cc1ccccn1	No
Cc1c(C(=O)/C=C/Nc2c(Cl)cc(S(N)(=O)=O)cc2Cl)sc2nc3ccccc3n12	Yes
O=C(N/N=C/[C@@H](O)[C@H](O)[C@H](O)CO)c1ccc(NC(=O)c2cccnc2)cc1	Yes

Now examine the next entry.
Prompt: Confirm if growth reported for the compound `COc1nc2ccccc2cc1-c1nc2c(cnn2-c2ccc(Br)cc2)c(=O)[nH]1` is 80% or above.
Completion: No

* * *

I'd be grateful if you could share measured growth for these entries.
Tested on: ACHN renal
Experiment: NCI-60 one-dose screen, 48 h (100 = growth as untreated, 0 = no growth, -100 = all killed)
Conditions: 10 µM unless noted
Protocol: Growth inhibition of the ACHN human tumor cell line is measured as a screen for anti-cancer activity. Cells are grown in 96 well plates and exposed to the test compound for 48 hours. Compounds are tested at a single concentration, which is 10^-5 M for most compounds. The reported endpoint is percent growth (GI% or GIPRCNT), where numbers from 0 - 100% represent growth inhibition, and numbers from -100% - 0 represent cell death. For example, a value of 40 represents 60% growth inhibition. […]
This is part of a sample that, as a whole, favours compounds with a hit. Of some 83,000 tested, about 20% had one in any assay. The source made the active and inactive calls. The calls were made as follows: active = growth percent below 10; inactive = the rest.

# example entries with known answers
compound	measuredOn	growth
[O-][n+]1c2ccccc2[n+]([O-])c2c3ccccc3[nH]c21	ACHN renal	87.5% (inactive)
CCCCNC(=O)Oc1ccc(/C(=C(\C)c2ccc(Cl)cc2)c2ccc(OCCN3CCCCC3)cc2)cc1	ACHN renal	94% (inactive)
O=C(O)C(c1ccccc1)N1C(=O)CSC1=S (centres undefined)	ACHN renal	102% (inactive)
C#C[C@]1(O)CC[C@H]2[C@@H]3CC=C4c5sc(Nc6cc(F)ccc6F)nc5CC[C@]4(C)[C@H]3CC[C@@]21C	ACHN renal	-68.2% (active)
COc1cccc(Cc2cc(-c3ccccc3)nn(CC(=O)c3ccccc3)c2=O)c1	ACHN renal	52% (inactive)

Give growth for each of the items listed below.
1. CCc1ccc(Oc2c(-c3ccc(OCCc4cccc(C(F)(F)F)c4)cc3O)n[nH]c2C(F)(F)F)cc1
2. CCCCn1c(=O)c(-c2cc(-c3ccc(Cl)cc3)nc(-c3ccc(Cl)cc3)c2)cc2cc(C)ccc21
3. c1cc(-c2nnc(SSc3ncnc4nc[nH]c34)o2)ccn1
4. NCCOc1ncccc1/C=C1\c2ccccc2-c2ccc(C(F)F)cc21

Completion:
16.6% (inactive)
107% (inactive)
45% (inactive)
4.83% (active)

* * *

I'd be grateful if you could share measured growth for these entries.
tested on: COLO 205 colon; assay: NCI-60 one-dose screen, 48 h (100 = growth as untreated, 0 = no growth, -100 = all killed); conditions: 10 µM unless noted
The panel holds about 83,000 compounds, 20% with a hit somewhere; the sample as a whole holds those more often.
One number for each entry, in %.

compound	growth, %
COc1ccc(C(=O)N=Nc2c(O)n(C)c3ccccc23)cc1	106

Give growth for each of the items listed below.
1. N#Cc1cccc(NC(=O)c2cc(-c3ccc(F)cc3F)ccc2O)c1
2. O=C(O)c1cn(C2CC2)c2cc(N3CCN(C(=O)Nc4nc(-c5ccc(Cl)cc5)cs4)CC3)c(F)cc2c1=O
3. CCCCCCCCCCCCCCCCCC1OCC(COC(=O)O[C@]2(CC)C(=O)OCc3c2cc2n(c3=O)Cc3cc4ccccc4nc3-2)O1 (some centres undefined)
4. COc1cc(CNS(=O)(=O)c2ccc(C)cc2)ccc1OCc1cn(-c2ccccc2)nn1

Completion:
1. 107
2. 6.21
3. 79.3
4. 108

Give growth for each of the items listed below.
1. COc1cc(CCC[P+](c2ccccc2)(c2ccccc2)c2ccccc2)c(OC)c2c1OCO2
2. CCCCCCCCCCCCCCCCCCOc1ccc(CC(=O)OCC[N+](C)(C)C)cc1
3. CCOC(=O)Cn1c(C)c(/C=N/NC(=O)c2cc3c(ccc4ccccc43)o2)c2ccccc21
4. CCN1C(=O)N(CC)C2Nn3c(s/c(=C4\C(=O)N(CCC(C)C)c5ccccc54)c3=O)=NC21 (centres undefined)
5. CS(=O)(=O)N(c1cc(-c2ccc3ncnc(Nc4ccc(F)c(Cl)c4)c3c2)cnc1Cl)S(C)(=O)=O
6. CNCCCNc1nc2ccccc2c2c(=O)c3cc(F)ccc3sc12
7. CCCCNC(=O)Oc1ccc(/C(=C(\C)c2ccc(Cl)cc2)c2ccc(OCCN(CC)CC)cc2)cc1
8. O=c1c2cc(F)ccc2sc2c(NCCN3CCOCC3)nc3ccccc3c12

Completion:
[-35.6, 115, -39.9, 73.2, 45.1, -47.8, 63.3, 53.2]

Give growth for each of the items listed below.
1. COc1ccc2sc3c(NCCCN(C)C)nc4ccccc4c3c(=O)c2c1
2. CCCCOc1ccc(/C=N/NC(N)=S)cc1

Completion:
-1.26
85

Give growth for each of the items listed below.
1. CC(C)n1cnc2c(Nc3cccc(Cl)c3)nc(N[C@H]3CCCC[C@@H]3N)nc21
2. CN1CCN(c2ccc(-c3cc4c(Nc5ccc(F)c(Cl)c5)ncnn4c3)cc2)CC1
3. Cc1nn(-c2ccccc2)c(-n2ccnc2)c1/C=N/Nc1nc(-c2ccc(F)cc2)cs1
4. O=C(N/N=C/c1c(Cl)cccc1Cl)c1ccc(C(F)(F)F)nc1Nc1cccc(C(F)(F)F)c1

Completion:
26.4
37
70.8
-15.4

* * *

test system: MDA-MB-435 melanoma; assay: NCI-60 one-dose screen, 48 h (100 = growth as untreated, 0 = no growth, -100 = all killed); conditions: 10 µM unless noted
The panel holds about 83,000 compounds, 20% with a hit somewhere; the sample as a whole holds those more often.
propertyName: growth (%)
Give bare numbers, in %.

molecule	growth [%]
CCOC(=O)Cn1c(=O)c2c(c3ccccc3n2C)n2nnc(-c3ccccc3)c12	113
Cc1[nH]c(C(=O)Nc2ccc(C(=O)N3CCNCC3)cc2OC(C)C)c(Cl)c1Cl	35.9
O=CN1N=C(c2ccc(Nc3ccnc4cc(Cl)ccc34)cc2)CC1c1ccccc1 (centres undefined)	8.64
COc1ccc2c(c1)c(-c1ccc(-c3cn(C)c4ccc(OC)cc34)o1)cn2C	89.5

Give growth for each of the items listed below.
1. CCCCCCCCCCCCCCCCCCOc1ccc(CC(=O)OCC[N+](C)(C)C)cc1
2. Cc1ccc(C(=O)N/N=C/c2cccc([N+](=O)[O-])c2)cn1
3. COc1cc(Nc2cn[nH]c2-c2ccc(Cl)cc2)cc(OC)c1OC
4. O=C(Nc1ccc(OS(=O)(=O)c2ccc(F)cc2)cc1)c1ccc(Cl)cc1
5. COc1ccc(C(=O)COC(=O)[C@H](C[Se][Se]C[C@H](NC(=O)c2ccc(Br)cc2F)C(=O)OCC(=O)c2ccc(OC)cc2)NC(=O)c2ccc(Br)cc2F)cc1

Completion:
1. 100
2. 100
3. -37.1
4. 117
5. 3.85

* * *

test system: HCT-116 colon; test: NCI-60 one-dose screen, 48 h (100 = growth as untreated, 0 = no growth, -100 = all killed); conditions: 10 µM unless noted
This is part of a sample that, as a whole, favours compounds with a hit. Of some 83,000 tested, about 20% had one in any assay.
The threshold is inclusive: growth of exactly 40% counts as T; values below receive F.

For orientation, consider the following solved cases.
compound	cat
CC1Cc2c(ncn3c(-c4ccc(F)cc4)nnc23)N(C)c2ccccc21 (stereo unspecified)	T
CC/C=C\C[C@@H]1C/C=C2/C(=O)C=C[C@H]2C/C=C\CCCC(=O)O1	F
CC1=C([Se]CC(OC(=O)[C@@H](CSSC(C)(C)C)NC(=O)OC(C)(C)C)C(=O)NC(C)(C)C)C(=O)c2ccccc2C1=O (stereo partly specified)	F
O=C(COc1ccc(/C=C2\Cc3ccc(Cl)cc3C2=O)cc1)Nc1nc2ccccc2s1	T

Prompt: Confirm if growth reported for the compound `O=C(O)CCC(=O)Nc1nnc(-c2ccccc2)s1` is 40% or above.
Completion: T

Prompt: Confirm if growth reported for the compound `COc1ccc2nc(NCCCNCCO)c3sc4ccc(F)cc4c(=O)c3c2c1` is 40% or above.
Completion: F

Prompt: Confirm if growth reported for the compound `COc1ccn2c(C(C)=O)cc(C(=O)c3ccc4c(c3)Sc3ccccc3N4)c2c1` is 40% or above.
Completion: F

Prompt: Confirm if growth reported for the compound `O=c1cc(SCc2ccccc2)nc[nH]1` is 40% or above.
Completion: T

Prompt: Confirm if growth reported for the compound `CCCCC[C@H](O)C/C=C1/C(=O)C=C[C@@H]1C/C=C\CCCC(=O)OC` is 40% or above.
Completion: F

Prompt: Confirm if growth reported for the compound `COc1ccc(NC2=C(Br)C(=O)C(C)=C(C)C2=O)cc1` is 40% or above.
Completion: F

Prompt: Confirm if growth reported for the compound `O=C(Nc1ccc(Cl)cc1F)c1cc(Cl)ccc1O` is 40% or above.
Completion: F
